meta.source: patent US8883963B2

Recorded measurements of Human GLP-1 R activity (cAMP release), % activity with respect to control, one per entry
- SUBJECT OF TEST: Human GLP-1 receptor (Homo sapiens, UniProt P43220)
- Construct: The full-length cDNA was cloned in pcDNA3.1(+); expressed in transfected cells
- Sequence (P43220 24-463): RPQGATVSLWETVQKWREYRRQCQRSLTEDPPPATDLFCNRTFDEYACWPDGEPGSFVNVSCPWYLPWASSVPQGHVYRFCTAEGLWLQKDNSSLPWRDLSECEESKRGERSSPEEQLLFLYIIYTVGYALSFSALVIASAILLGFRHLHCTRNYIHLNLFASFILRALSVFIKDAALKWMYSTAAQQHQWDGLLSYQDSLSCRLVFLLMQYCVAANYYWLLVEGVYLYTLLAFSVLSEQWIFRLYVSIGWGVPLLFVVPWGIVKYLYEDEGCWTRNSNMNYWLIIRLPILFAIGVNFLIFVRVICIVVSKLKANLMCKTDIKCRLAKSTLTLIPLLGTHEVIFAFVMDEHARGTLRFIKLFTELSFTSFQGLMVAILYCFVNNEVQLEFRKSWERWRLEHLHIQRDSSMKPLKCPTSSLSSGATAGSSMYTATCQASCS
- PROCEDURE DETAILS: In vitro Human GLP-1 R agonist activity (cyclic AMP determination) in CHO/human GLP1R cells
- Type: cell-based
- PARTICULARS: 10 μM test compound
Numeric only. Scale: %

>>> endpoint_value("CCc1cc(OC)ccc1-c1ccc(CC(NC(=O)[C@H](CC(=O)O)NC(=O)[C@H](CO)NC(=O)[C@@H](NC(=O)[C@H](Cc2ccccc2)NC(=O)[C@@H](NC(=O)CNC(=O)C(CCC#N)NC(=O)C(C)(C)NC(=O)[C@@H](N)Cc2c[nH]cn2)[C@@H](C)O)[C@@H](C)O)C(=O)NC(CCCc2ccc(Cl)cc2C)C(N)=O)cc1 (single isomer, unassigned) [compound 32]")
99
>>> endpoint_value("CCc1cc(OC)ccc1-c1ccc(CC(CNC(CCCc2ccccc2F)C(N)=O)NC[C@H](CC(=O)O)NC(=O)[C@H](CO)NC(=O)[C@@H](NC(=O)C(C)(Cc2ccccc2F)NC(=O)[C@@H](NC(=O)CNC(=O)[C@H](CCC(N)=O)NC(=O)C(C)(C)NC(=O)[C@H](Cc2c[nH]cn2)NC(=O)OC)[C@@H](C)O)[C@@H](C)O)cc1 (single isomer, unassigned) [compound 196]")
99

stdin: Send back Human GLP-1 receptor (Homo sapiens, UniProt P43220) Human GLP-1 R activity (cAMP release), % activity with respect to control of CCc1cc(OC)ccc1-c1ccc(CC(NC(=O)[C@H](CC(=O)O)NC(=O)[C@H](CO)NC(=O)[C@@H](NC(=O)C(C)(Cc2ccccc2F)NC(=O)[C@@H](NC(=O)CNC(=O)C(CCC#N)NC(=O)C(C)(C)NC(=O)[C@@H](N)Cc2c[nH]cn2)[C@H](C)O)[C@@H](C)O)C(=O)NC(CCCc2ccccc2F)C(N)=O)cc1 (single isomer, unassigned) [compound 112] only.
stdout: 99

---

Recorded measurements of Human GLP-1 R activity (cAMP release), % activity with respect to control, one per entry
- SUBJECT OF TEST: Human GLP-1 receptor (Homo sapiens, UniProt P43220)
- Construct: The full-length cDNA was cloned in pcDNA3.1(+); expressed in transfected cells
- PROCEDURE DETAILS: In vitro Human GLP-1 R agonist activity (cyclic AMP determination) in CHO/human GLP1R cells
- Assay type: cell-based
- PARTICULARS: 1 nM test compound
Numeric only. Scale: %

Reference set, count: 5
>>> endpoint_value("CCc1cc(OC)ccc1-c1ccc(CC(NC(=S)[C@H](CC(=O)O)NC(=O)[C@H](CO)NC(=O)[C@@H](NC(=O)C(C)(Cc2ccccc2F)NC(=O)[C@@H](NC(=O)CNC(=O)C(CCC#N)NC(=O)C(C)(C)NC(=O)[C@@H](N)Cc2c[nH]cn2)[C@H](C)O)[C@H](C)O)C(=S)NC(CCCc2ccccc2F)C(N)=O)cc1 (single isomer, unassigned)")
40
>>> endpoint_value("CCc1cc(OC)ccc1-c1ccc(CC(CNC(CCCc2ccccc2)C(N)=O)NC(=O)[C@H](CC(=O)O)NC(=O)[C@H](CO)NC(=O)[C@@H](NC(=O)C(C)(Cc2ccccc2F)NC(=O)[C@@H](NC(=O)CNC(=O)C(CCC#N)NC(=O)C(C)(C)NC(=O)[C@@H](N)Cc2c[nH]cn2)[C@H](C)O)[C@H](C)O)cc1 (single isomer, unassigned)")
41
>>> endpoint_value("CCc1cc(OC)ccc1-c1ccc(CC(NC(=O)[C@H](CC(=O)O)NC(=O)[C@H](CO)NC(=O)[C@@H](NC(=O)C(C)(Cc2ccccc2F)NC(=O)[C@@H](NC(=O)CNC(=O)C(CCC#N)NC(=O)C(C)(C)NC(=O)[C@@H](N)Cc2c[nH]cn2)[C@H](C)O)[C@H](C)O)C(=O)N(C)C(CCCc2ccccc2)C(N)=O)cc1 (single isomer, unassigned)")
39
>>> endpoint_value("CCc1cc(OC)ccc1-c1ccc(CC(NC(=S)[C@H](CC(=O)O)NC(=O)[C@H](CO)NC(=O)[C@@H](NC(=O)C(C)(Cc2ccccc2F)NC(=O)[C@@H](NC(=O)CNC(=O)C(CCC#N)NC(=O)C(C)(C)NC(=O)[C@@H](N)Cc2c[nH]cn2)[C@H](C)O)[C@H](C)O)C(=S)NC(CCCc2ccccc2)C(N)=O)cc1 (single isomer, unassigned)")
39
>>> endpoint_value("CCc1cc(OC)ccc1-c1ccc(CC(NC(=O)[C@H](CC(=O)O)NC(=O)[C@H](CO)NC(=O)[C@@H](NC(=O)[C@H](Cc2ccccc2)NC(=O)[C@@H](NC(=O)CNC(=O)[C@H](CCC(N)=O)NC(=O)C(C)(C)NC(=O)[C@@H](N)Cc2c[nH]cn2)[C@@H](C)O)[C@@H](C)O)C(=O)NC(CCCc2ccc(OC)cc2Cl)C(N)=O)cc1 (single isomer, unassigned)")
39

stdin: Send back Human GLP-1 receptor (Homo sapiens, UniProt P43220) Human GLP-1 R activity (cAMP release), % activity with respect to control of CCc1cc(OC)ccc1-c1ccc(CC(NC(=O)[C@H](CC(=O)O)NC(=O)[C@H](CO)NC(=O)[C@@H](NC(=O)C(C)(Cc2ccccc2F)NC(=O)[C@@H](NC(=O)CNC(=O)C(CCC#N)NC(=O)C(C)(C)NC(=O)[C@H](Cc2c[nH]cn2)NC(=O)OC)[C@@H](C)O)[C@@H](C)O)C(=O)NC(CCCc2ccccc2)C(N)=O)cc1 (single isomer, unassigned) only.
stdout: 39

---

- PROCEDURE DETAILS: Stability in human plasma
- Type: in vitro ADME
- PARTICULARS: 2 μM peptidomimetic, pooled human plasma, 37° C., 24 h
Non-standard residues stand in square brackets, D forms with d. Residues, ends and D or L forms follow the SMILES beside them. ξ: configuration not given here. *: point of attachment. X3 = CCc1cc(OC)ccc1-c1ccc(CC(N*)C(=S)NC(CCCc2ccccc2)C(N)=O)cc1; Leu(5,5,5,5',5',5'-F6) = N[C@@H](CC(C(F)(F)F)C(F)(F)F)C(=O)O; X4 = CCc1cc(OC)ccc1-c1ccc(CC(CNC(CCCc2ccccc2F)C(N)=O)N*)cc1; ξBip(2'-Et-4'-OMe) = CCc1cc(OC)ccc1-c1ccc(CC(N)C(=O)O)cc1; ξNva(5-(4-Cl-2-MePh)) = Cc1cc(Cl)ccc1CCCC(N)C(=O)O; ξαMePhe(2-F) = CC(N)(Cc1ccccc1F)C(=O)O; aThr = C[C@H](O)[C@H](N)C(=O)O; Aib = CC(C)(N)C(=O)O
OBSERVED PROPERTY: % degradation of peptidomimetics in 24 h when incubated with human plasma (%)
Numeric only. Scale: %

Reference set, count: 3
>>> endpoint_value("CCc1cc(OC)ccc1-c1ccc(CC(NC(=O)[C@H](CC(=O)O)NC(=O)[C@H](CO)NC(=O)[C@@H](NC(=O)C(C)(Cc2ccccc2)NC(=O)[C@@H](NC(=O)CNC(=O)[C@H](CC(C(F)(F)F)C(F)(F)F)NC(=O)C(C)(C)NC(=O)[C@@H](N)Cc2c[nH]cn2)[C@@H](C)O)[C@@H](C)O)C(=O)NC(CCCc2ccccc2)C(N)=O)cc1 (single isomer, unassigned) [compound 230]")
70
>>> endpoint_value("CCc1cc(OC)ccc1-c1ccc(CC(CNC(CCCc2ccccc2)C(N)=O)NC[C@H](CC(=O)O)NC(=O)[C@H](CO)NC(=O)[C@@H](NC(=O)C(C)(Cc2ccccc2F)NC(=O)[C@@H](NC(=O)CNC(=O)C(CCC#N)NC(=O)C(C)(C)NC(=O)[C@@H](N)Cc2c[nH]cn2)[C@H](C)O)[C@H](C)O)cc1 (single isomer, unassigned) [compound 202]")
"00"
>>> endpoint_value("CCc1cc(OC)ccc1-c1ccc(CC(NC(=O)[C@H](CC(=O)O)NC(=O)[C@H](CO)NC(=O)[C@@H](NC(=O)C(C)(Cc2ccccc2F)NC(=O)[C@@H](NC(=O)CNC(=O)[C@H](CC(C(F)(F)F)C(F)(F)F)NC(=O)C(C)(C)NC(=O)[C@@H](N)Cc2c[nH]cn2)[C@H](C)O)[C@H](C)O)C(=S)NC(CCCc2ccccc2)C(N)=O)cc1 (stereo partly shown) [compound 219] (H-H[Aib][Leu(5,5,5,5',5',5'-F6)]G[aThr][ξαMePhe(2-F)][aThr]SD-X3)")
"00"

stdin: Read the entry CCc1cc(OC)ccc1-c1ccc(CC(CNC(CCCc2ccccc2F)C(N)=O)NC(=O)[C@H](CC(=O)O)NC(=O)[C@H](CO)NC(=O)[C@@H](NC(=O)C(C)(Cc2ccccc2F)NC(=O)[C@@H](NC(=O)CNC(=O)[C@H](CC(C(F)(F)F)C(F)(F)F)NC(=O)C(C)(C)NC(=O)[C@@H](N)Cc2c[nH]cn2)[C@H](C)O)[C@H](C)O)cc1 (stereo partly shown) [compound 214] (H-H[Aib][Leu(5,5,5,5',5',5'-F6)]G[aThr][ξαMePhe(2-F)][aThr]SD-X4) and write its reported % degradation of peptidomimetics in 24 h when incubated with human plasma.
stdout: 78

stdin: Read the entry CCc1cc(OC)ccc1-c1ccc(CC(CNC(CCCc2ccccc2)C(N)=O)NC(=O)[C@H](CC(=O)O)NC(=O)[C@H](CO)NC(=O)[C@@H](NC(=O)C(C)(Cc2ccccc2F)NC(=O)[C@@H](NC(=O)CNC(=O)C(CCC#N)NC(=O)C(C)(C)NC(=O)[C@@H](N)Cc2c[nH]cn2)[C@H](C)O)[C@H](C)O)cc1 (single isomer, unassigned) [compound 190] and write its reported % degradation of peptidomimetics in 24 h when incubated with human plasma.
stdout: 00

stdin: Read the entry CCc1cc(OC)ccc1-c1ccc(CC(NC(=O)[C@H](CC(=O)O)NC(=O)[C@H](CO)NC(=O)[C@@H](NC(=O)[C@H](Cc2ccccc2)NC(=O)[C@@H](NC(=O)CNC(=O)[C@H](CCC(N)=O)NC(=O)[C@H](CO)NC(=O)[C@@H](N)Cc2c[nH]cn2)[C@@H](C)O)[C@@H](C)O)C(=O)NC(CCCc2ccc(Cl)cc2C)C(N)=O)cc1 (stereo partly shown) [compound 8] (H-HSQGTFTSD[ξBip(2'-Et-4'-OMe)][ξNva(5-(4-Cl-2-MePh))]-NH2) and write its reported % degradation of peptidomimetics in 24 h when incubated with human plasma.
stdout: 00

stdin: Read the entry CCc1cc(OC)ccc1-c1ccc(CC(NC(=O)[C@H](CC(=O)O)NC(=O)[C@H](CO)NC(=O)[C@@H](NC(=O)C(C)(Cc2ccccc2F)NC(=O)[C@@H](NC(=O)CNC(=O)C(CCC#N)NC(=O)C(C)(C)NC(=O)[C@H](Cc2c[nH]cn2)NC(=O)OC)[C@@H](C)O)[C@@H](C)O)C(=O)NC(CCCc2ccccc2)C(N)=O)cc1 (single isomer, unassigned) [compound 206] and write its reported % degradation of peptidomimetics in 24 h when incubated with human plasma.
stdout: 00
